Provenance of the data: PubChem BioAssay (NCI)

tested on: MDA-MB-468 breast; experiment: NCI-60 one-dose screen, 48 h (100 = growth as untreated, 0 = no growth, -100 = all killed); settings: 10 µM unless noted
About 83,000 compounds went through this panel and 20% of them were active in at least one assay; those are over-represented in the sample as a whole. Active and inactive are the calls of the source. How the source made its calls: active means growth percent below 10; inactive means the rest.
Reported growth values are given for each entry in this list.

[
  {
    "molecule": "Cc1ccc(C)c(C(O)(c2cc(C)ccc2C)C2(O)CCCCC2)c1",
    "measuredOn": "MDA-MB-468 breast",
    "growth": "90.5% (inactive)"
  },
  {
    "molecule": "O=C(Cc1ccccc1)Cc1ccccc1",
    "measuredOn": "MDA-MB-468 breast",
    "growth": "99.5% (inactive)"
  },
  {
    "molecule": "CC(=O)O[C@H]1CC[C@@]2(C)C(=CC[C@@H]3[C@@H]2CC[C@]2(C)C(c4cccnc4)=CC[C@@H]32)C1",
    "measuredOn": "MDA-MB-468 breast",
    "growth": "26.5% (inactive)"
  },
  {
    "molecule": "O=S(=O)(NCCCNc1nccc(-c2c(-c3ccc(F)cc3)nc3sccn23)n1)c1ccc(F)cc1",
    "measuredOn": "MDA-MB-468 breast",
    "growth": "50.5% (inactive)"
  },
  {
    "molecule": "O=C(CCCC(=O)Nc1ccc(-n2nnc3cc(Cl)c(Cl)cc32)cc1)Nc1ccc(-n2nnc3cc(Cl)c(Cl)cc32)cc1",
    "measuredOn": "MDA-MB-468 breast",
    "growth": "18.9% (inactive)"
  }
]

Give growth; test system MDA-MB-468 breast; molecule CC/C=C\C[C@H](O)C/C=C1/C(=O)C=C[C@@H]1C/C=C\CCCCO 16.5% (inactive)

Quote growth with test system MDA-MB-468 breast for COc1ccc(CNC(=O)C(O)C(Cc2ccccc2)NC(=O)c2[nH]c3ccccc3c(=O)c2C)cc1OC (stereo not given) 102% (inactive)

Report measured growth on MDA-MB-468 breast; entry: COc1cc2c(c(OC)c1OC)CCC(c1cccc(C(=O)Nc3ccc(Br)cc3)c1)O2 (stereo not given) 38.2% (inactive)

Find the measured growth of Clc1ccccc1C(c1ccccc1)(c1ccccc1)n1ccnc1 with MDA-MB-468 breast as test system. 2.94% (active)

Fetch value of growth on MDA-MB-468 breast for Nc1c(C(=O)Nc2ccccc2)sc2nc3c(cc12)C(O)CCC3 (stereo not given) . 51.6% (inactive)
